Target: FAP (Homo sapiens)
Construct: the extracellular domain of FAP was cloned with a His-6 tag; made in house
Sequence (Q12884 26-760 limits assumed): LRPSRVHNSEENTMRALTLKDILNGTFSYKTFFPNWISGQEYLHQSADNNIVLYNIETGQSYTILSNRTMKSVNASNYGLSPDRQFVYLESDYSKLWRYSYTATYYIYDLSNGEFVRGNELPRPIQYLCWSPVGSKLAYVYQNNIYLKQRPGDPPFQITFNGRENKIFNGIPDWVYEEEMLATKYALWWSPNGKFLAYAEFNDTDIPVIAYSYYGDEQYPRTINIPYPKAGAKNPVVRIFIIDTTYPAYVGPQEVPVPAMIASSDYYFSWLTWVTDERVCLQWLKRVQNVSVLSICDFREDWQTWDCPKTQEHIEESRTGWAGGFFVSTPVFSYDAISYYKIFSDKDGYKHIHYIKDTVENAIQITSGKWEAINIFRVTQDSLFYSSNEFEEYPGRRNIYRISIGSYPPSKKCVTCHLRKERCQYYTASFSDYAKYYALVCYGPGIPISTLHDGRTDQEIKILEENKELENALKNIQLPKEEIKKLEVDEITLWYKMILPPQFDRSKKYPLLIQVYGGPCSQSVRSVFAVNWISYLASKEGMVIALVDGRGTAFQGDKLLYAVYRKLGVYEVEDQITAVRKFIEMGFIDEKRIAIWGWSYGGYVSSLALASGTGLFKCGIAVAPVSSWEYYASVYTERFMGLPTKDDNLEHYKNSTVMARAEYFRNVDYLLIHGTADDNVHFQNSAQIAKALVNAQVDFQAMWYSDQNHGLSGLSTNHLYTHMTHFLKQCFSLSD
Experiment: LC-MS/MS cleavage map of FAP digest of 100 kDa recombinant human gelatin
Assay type: biochemical
Settings: 100 kDa gelatin digest; share of all occurrences
test readout: Percentage

P = P.AGFAGPPGADGQPGAKGEPGDAGAKGDAGPPGP.A: FAP cleavage fragment, 100 kDa recombinant human gelatin
Q = A.PGDKGESGP.S: FAP cleavage fragment, 100 kDa recombinant human gelatin
// compare: P vs Q , metric Percentage, want the smaller API: response body contains the label of the selected item.
Q

A = G.PPGPAGPAGPPGP.I: FAP cleavage fragment, 100 kDa recombinant human gelatin
B = G.PPGAPGAPGAPGPVGPAGKSGDRGETGP.A: FAP cleavage fragment, 100 kDa recombinant human gelatin
C = P.AGRPGEVGPPGPPGP.A: FAP cleavage fragment, 100 kDa recombinant human gelatin
D = P.PGAPGAPGAPGPVGPAGKSGDRGETGP.A: FAP cleavage fragment, 100 kDa recombinant human gelatin
Hey, can you sort those substances up there by Percentage, smallest first? Your reply should list the labels following the order given in the request.
A, D, B, C
(A: 0.48, D: 0.95, B: 3.33, C: 5.24)
